Field: Relative cAMP EC50. Provide a value for each of the binders that follow.
# ASSAYED TARGET: human glucagon receptor (human) (UniProt P47871)
# Sequence (P47871 26-477): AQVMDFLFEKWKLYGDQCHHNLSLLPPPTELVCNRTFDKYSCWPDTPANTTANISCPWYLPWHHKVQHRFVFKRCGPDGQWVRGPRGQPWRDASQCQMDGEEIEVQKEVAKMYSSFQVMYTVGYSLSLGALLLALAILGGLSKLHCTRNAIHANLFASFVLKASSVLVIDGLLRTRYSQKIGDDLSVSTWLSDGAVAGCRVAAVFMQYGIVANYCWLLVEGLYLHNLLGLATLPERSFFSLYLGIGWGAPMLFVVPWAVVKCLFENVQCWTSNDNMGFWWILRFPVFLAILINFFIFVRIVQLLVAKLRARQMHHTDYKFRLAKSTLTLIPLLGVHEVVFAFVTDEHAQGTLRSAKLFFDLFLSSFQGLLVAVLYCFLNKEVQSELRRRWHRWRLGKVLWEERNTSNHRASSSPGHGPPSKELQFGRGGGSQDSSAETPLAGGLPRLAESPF
# MEASUREMENT DESCRIPTION: cell-based or functional assay
Starred links: 1 amine or outer side, 2 acyl side, 3 side chain; linkers in the order of their positions; H or OH if unused. Non-standard residues stand in square brackets, D forms with d. Groups on a side chain read outwards from the residue. No end group written: not given here. *: point of attachment. C18 diacid = O=C(O)CCCCCCCCCCCCCCCCC(=O)*; γGlu = O=C(O)[C@H](CCC(=O)[*:2])N[*:1]; αMeL = CC(C)C[C@](C)(N)C(=O)O; Dab = NCC[C@H](N)C(=O)O; AEEA = NCCOCCOCC(=O)O; Aib = CC(C)(N)C(=O)O
Only the number, expressed in nM, is required.

# Relative cAMP EC50 of Y[Aib]QGTFTSDFS[Dab][αMeL]LDKK([AEEA-γGlu-C18 diacid])AQ[Aib]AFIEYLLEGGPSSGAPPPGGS-NH2 [Example 67] = 3.7

# Relative cAMP EC50 of YXQGTXTSDXXIXLDXKAQXEFIEXLIEGGPSSGEPPPEGE (non-natural residues; AEEA-γGlu-C18 diacid on Lys; C-terminal amide; synthetic construct; SITE 2: note = 2-Aminoisobutyric Acid; SITE 6: note = alpha-methyl-2-fluoro-L-phenylalanine; SITE 10: note = 3-(4-Pyridyl)-L-alanine; SITE 11: note = alpha-methyl-L-serine; SITE 13: note = alpha-methyl-leucine; SITE 16: note = L-ornithine; SITE 17: note = Lysine is chemically mo) [Example 1149] = 1.37

# Relative cAMP EC50 of YXQGTFTSDFSKXLDKKAQXAFIEWLLAGGPSSGEPPPSEG (non-natural residues, acyl lysine, C-terminal amide; synthetic construct; SITE 2: note = 2-Aminoisobutyric Acid; SITE 13: note = alpha-methyl-leucine; SITE 17: note = Lysine is chemically modified through conjugation of the epsilon-amino group of the Lysine side chain with (2-[2-(2-Amino-ethoxy)-ethoxy]-acetyl)-(gamma-Glu)-CO-(CH2) 18-CO2H; SITE 20: n) [Example 20] = 15.4
